Task for the reader: assign each of the following compounds its reported log10 IC50.
# tested.target: renin (Homo sapiens, UniProt P00797)
# Sequence (P00797 67-406, species assumed): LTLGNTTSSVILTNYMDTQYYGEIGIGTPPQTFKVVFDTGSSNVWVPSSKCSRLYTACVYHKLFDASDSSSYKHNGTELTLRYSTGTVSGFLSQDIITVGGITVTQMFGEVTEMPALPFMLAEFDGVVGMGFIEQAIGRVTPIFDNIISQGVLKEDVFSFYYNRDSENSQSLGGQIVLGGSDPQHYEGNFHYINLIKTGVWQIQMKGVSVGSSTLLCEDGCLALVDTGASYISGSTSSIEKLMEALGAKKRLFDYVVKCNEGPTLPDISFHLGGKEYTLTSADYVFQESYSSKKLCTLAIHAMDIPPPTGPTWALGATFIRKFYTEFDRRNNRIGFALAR
# procedure.summary: in vitro renin inhibitory activity, radioimmunoassay for angiotensin I
# Type: biochemical
Note: values are log10 of IC50 expressed in nM.

Find the recorded log10 IC50 belonging to CCC(C)CNC(=O)C[C@H](O)[C@H](CC(C)C)NC(=O)[C@H](CC#N)NC(=O)[C@H](Cc1ccccc1)NC(=O)OC(C)(C)C (some centres unmarked) and report it.
2.41

Proceed to CCC(C)CNC(=O)C[C@H](O)[C@H](CC(C)C)NC(=O)C(NC(=O)C(CC(=O)N1CCOCC1)Cc1cccc2ccccc12)C(=O)OC (some centres unmarked)
1.99

Same lookup for CC[C@H](C)CNC(=O)C[C@H](O)[C@H](CC(C)C)NC(=O)C(NC(=O)[C@H](Cc1ccccc1)NC(=O)OC(C)(C)C)C(=O)N1CCCC1 (some centres unmarked) , please.
2.60

Similarly, CNC(=S)NCCCC[C@H](NC(=O)C(Cc1ccccc1)CS(=O)(=O)C(C)(C)C)C(=O)N[C@@H](CC1CCCCC1)[C@@H](O)CC(=O)NCCN1CCOCC1 (some centres unmarked) ?
1.43

And CC(C)C[C@H](NC(=O)C[C@H](O)[C@H](CC(C)C)NC(=O)[C@H](CCCCNC(=N)N[N+](=O)[O-])NC(=O)C(Cc1cccc2ccccc12)Cc1cccc2ccccc12)C(=O)NCc1ccccc1 ?
1.18

Please give the result for CC(C)C[C@H](NC(=O)C[C@H](O)[C@H](CC(C)C)NC(=O)C(CCCCCNC(=N)N[N+](=O)[O-])NC(=O)C(Cc1cccc2ccccc12)Cc1cccc2ccccc12)C(=O)NCc1ccccc1 (some centres unmarked) too.
2.04

Subsequent entry: CC[C@H](C)CNC(=O)C[C@H](O)[C@H](CC(C)C)NC(=O)[C@H](CCCCNS(=O)(=O)c1ccc(C)cc1)NC(=O)C(Cc1cccc2ccccc12)Cc1cccc2ccccc12 [Example 41, DNMA-LYS(TOS)-STA-NHCH2 CH(CH3)CH2 CH3]
3.48

How about CCC(C)CNC(=O)C[C@H](O)[C@H](CC(C)C)NC(=O)C(CC#CCNC(C)=O)NC(=O)C(Cc1cccc2ccccc12)Cc1cccc2ccccc12 (single isomer, unassigned) ?
1.46

What would you report for CCC(C)CNC(=O)C[C@H](O)[C@H](CC(C)C)NC(=O)[C@H](CCCCNP(=O)(Oc1ccccc1)Oc1ccccc1)NC(=O)C(Cc1cccc2ccccc12)Cc1cccc2ccccc12 (some centres unmarked) ?
3.87

Try this compound too: CCC(C)CNC(=O)C[C@H](O)[C@H](CC(C)C)NC(=O)[C@H](CCCCNC(=NC#N)SC)NC(=O)C(Cc1cccc2ccccc12)Cc1cccc2ccccc12 (some centres unmarked)
1.28

Consider next the compound CCC(C)CNC(=O)C[C@H](O)[C@H](CC(C)C)NC(=O)C(CCCCCNC(=N)N[N+](=O)[O-])NC(=O)C(Cc1cccc2ccccc12)Cc1cccc2ccccc12 (some centres unmarked) in the same way.
1.41

Try this compound next: CC[C@H](C)CNC(=O)C[C@H](O)[C@H](CC(C)C)NC(=O)C(NC(=O)C(Cc1cccc2ccccc12)Cc1cccc2ccccc12)C(=O)OC (some centres unmarked)
1.36

Try this compound too: CC[C@H](C)CNC(=O)C[C@H](O)[C@H](CC(C)C)NC(=O)C(CCCCCCNC(=S)NC)NC(=O)C(Cc1cccc2ccccc12)Cc1cccc2ccccc12 (some centres unmarked)
1.65

Param item: CC[C@H](C)CNC(=O)C[C@H](O)[C@H](CC(C)C)NC(=O)C(CC#CCNC(=O)OCc1ccccc1)NC(=O)C(Cc1cccc2ccccc12)Cc1cccc2ccccc12 (some centres unmarked)
2.18
